FYI, the data here is from patent US20250346584A1.

- target or system: kappa opioid receptor (OPRK1) (Homo sapiens (Human))
- Sequence (P41145 whole entry): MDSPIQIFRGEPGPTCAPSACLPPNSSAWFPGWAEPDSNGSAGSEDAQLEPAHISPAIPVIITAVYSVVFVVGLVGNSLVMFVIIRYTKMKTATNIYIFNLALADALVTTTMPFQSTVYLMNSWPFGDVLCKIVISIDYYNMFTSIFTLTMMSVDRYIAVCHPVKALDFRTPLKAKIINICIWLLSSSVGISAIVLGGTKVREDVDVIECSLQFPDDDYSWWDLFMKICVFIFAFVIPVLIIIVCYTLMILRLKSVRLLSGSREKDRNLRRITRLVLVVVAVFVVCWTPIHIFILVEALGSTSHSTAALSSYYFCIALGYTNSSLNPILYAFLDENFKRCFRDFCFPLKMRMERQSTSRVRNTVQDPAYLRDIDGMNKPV
- assay procedure: OPRK1 antagonist assay (b-arrestin-2-TEV / b-lactamase reporter cell line, EC80 U-50488 challenge)
- Type: cell-based
- condition details: read-out: IC50 nM (% inhib if other than 50%); antagonist mode vs EC80 U-50488; NA = not active at concentrations up to 10 μM
Decision: IC50 beneath 70 nM gives Met; IC50 meeting or exceeding 70 nM gives Not met.

- COC(=O)c1cc(Br)cnc1N1CCC(NC2CCOCC2)CC1: Not met
- CC(=O)c1cc(Br)cnc1N1CCC(NC2CCCCC2)C(CO)C1 (centres unmarked) [compound 97]: Not met
- COC(=O)c1cc(Br)cnc1N1CCC(NC2CCCCC2C)C(O)C1 (centres unmarked): Not met
- CO[C@H]1CN(c2nc(C)c(C)cc2-c2nc(C)no2)CC[C@H]1NC1CCCCC1: Met
- CCc1noc(-c2cc3cc(C)ccc3nc2N2CCC(NC3CCCC3)C(OC)C2)n1 (centres unmarked): Met
- CCOC(=O)c1cc(C(=O)OC)c(C)nc1N1CCC(NC2CCCCC2)CC1: Not met
- COC1CN(c2nc3ccccc3cc2-c2cnc(C)cn2)CCC1NC1CCCCC1 (centres unmarked): Met
- CO[C@H]1CN(c2nc3ccccc3cc2-c2nc(C)no2)CC[C@H]1NC1CCCCC1: Met
- Cc1noc(-c2cc3ccccc3nc2N2CC[C@@H](NC3CCCCC3)[C@H](O)C2)n1 [compound 172]: Met
- Cc1nc(-c2cc3ccc(F)cc3nc2N2CCC(N[C@H]3CCCC[C@@H]3O)CC2)no1: Not met
- CO[C@@H]1CN(c2nc3ccccc3cc2-c2cnc(C)cn2)CC[C@@H]1NC1CCCCC1: Not met
- CCc1noc(-c2cc3cc(C)ccc3nc2N2CCC(NC3CCCCC3)C(CO)C2)n1 (centres unmarked): Met
- COC(=O)c1cc(Br)cnc1N1CCC(N)C(O)C1 (centres unmarked): Not met
- Cc1cnc(N2CCC(NC3CCCCC3)C(CO)C2)c(-c2ncccn2)c1 (centres unmarked): Not met
- Cc1nc(-c2cc3cc(F)ccc3nc2N2CCC(NC3CCOCC3)CC2)no1: Not met
- Cc1noc(-c2cc3c(F)cccc3nc2N2CCC(NC3CCOCC3)CC2)n1: Met
- COC(=O)c1cc(C)c(C)nc1N1CCC(NC2CCCCC2)C(OC)C1 (centres unmarked): Not met
- Cc1noc(-c2nc3ccccc3nc2N2CC[C@@H](NC3CCCCC3)[C@H](O)C2)n1: Not met
- COC(=O)c1cc(Br)cnc1N1CC2CN(C3CCCC3)CC2C1 (centres unmarked): Not met
- Cc1nc(-c2cc3ccc(F)c(C)c3nc2N2CCC(N[C@H]3CCCC[C@@H]3O)CC2)no1: Not met
- Cc1noc(-c2cc(Br)cnc2N2CCC(NC3CCCCC3)CC2)n1: Not met
- COC(=O)c1cc(Br)cnc1N1CC2CN(C3CCCCC3)CC2C1 (centres unmarked): Not met
- COC(=O)c1cc([N+](=O)[O-])cnc1N1CCC(NC2CCCCC2)C(O)C1 (centres unmarked): Not met
- COC(=O)c1cc(Br)cnc1N1CCC(N[C@H](C)C2CCCCC2)CC1: Not met
- Cc1ccc2nc(N3CCC(NC4CCCCC4)C(CO)C3)c(-c3nc(C)no3)cc2c1 (centres unmarked): Met
- Cc1noc(-c2cc3c(nc2N2CCC(NC4CCCCC4)C(CO)C2)CCC3)n1 (centres unmarked): Not met
- Cc1noc(-c2cc3ccccc3nc2N2CCC(NC3CCCCC3)C(CO)C2)n1 (centres unmarked): Met
- Cc1ccc2nc(N3CCC(NC4CCCCC4C)CC3)c(-c3nc(C)no3)cc2c1 (centres unmarked): Met
- COC(=O)c1cc(Br)cnc1N1CCC(NC2CCCCC2)CC1C (centres unmarked): Not met
- COC(=O)c1cc(Cl)cnc1N1CC[C@H](NC2CCCCC2)[C@@H](O)C1: Not met
- Cc1cc(-c2nc(C)no2)c(N2CC[C@@H](NC3CCCCC3)[C@H](O)C2)nn1: Met
- COC(=O)c1cc(Br)cnc1N1CC(O)C(NC2CCCCC2)C(O)C1 (centres unmarked): Not met
- Cc1noc(-c2cc(C)c(C)nc2N2CCC(NC3CCCC3)C(CO)C2)n1 (centres unmarked): Met
- COC1CN(c2nc(C)c(C)cc2-c2nc(C)no2)CCC1NC1CCCC1 (centres unmarked): Met
